Below, each of the compounds is paired with its reported growth inhibition value.
- run description: NCI Yeast Anticancer Drug Screen. Data for the mlh1 rad18 strain (AID 175)
- condition info: S. cerevisiae mlh1 rad18 strain growth inhibition; at 50.0 µM; active compounds read high
The panel holds about 79,000 compounds, 15% with a hit somewhere; the sample as a whole holds those more often.

{"compound": "O=C(Nc1ccccc1C(=O)NCc1ccccc1)/C(=C/c1ccccc1)NC(=O)c1ccccc1", "growth inhibition, %": -34.7}
{"compound": "O=C(O)CNc1ccc([N+](=O)[O-])cc1C(=O)O", "growth inhibition, %": -5.95}
{"compound": "Cc1ccccc1C(C#N)/C(=N/NC(=O)C(=O)NN)C(=O)Nc1cccc(C(F)(F)F)c1 (stereo not given)", "growth inhibition, %": 21.8}
{"compound": "CN(C)c1nc2ccccc2[nH]1", "growth inhibition, %": -2}
{"compound": "CCC(=O)c1ccc(F)cc1", "growth inhibition, %": 20.4}
{"compound": "CC1CN(C(=O)Cn2cnc([N+](=O)[O-])n2)CC(C)O1 (stereo not given)", "growth inhibition, %": 12.7}
{"compound": "O=C(O)CCc1ccc(-c2ccccc2)[nH]1", "growth inhibition, %": -16.6}
{"compound": "CC(=N\\N=C(c1ccccc1)c1ccccc1)/C(C)=N/N=C(c1ccccc1)c1ccccc1", "growth inhibition, %": -17.8}
{"compound": "CC1=COC(=O)c2ccccc2N1", "growth inhibition, %": 6}
{"compound": "COC(=O)c1ccccc1C1CN=NC12Cc1c(ccc3c1CCC3)C2=O (stereo not given)", "growth inhibition, %": -0.85}
{"compound": "NNC(=S)NNc1ccccc1", "growth inhibition, %": 42.7}
{"compound": "O=[N+]([O-])c1ccc(N=P(c2ccccc2)(c2ccccc2)c2ccccc2)n2nnnc12", "growth inhibition, %": -6.85}
{"compound": "CCOC(=O)Nc1ccc(Cl)cc1Cl", "growth inhibition, %": 1.15}
{"compound": "c1cc2c3c(c1)ccc1cccc(c13)CC2", "growth inhibition, %": 13.9}
{"compound": "Cn1c(=O)c2[nH]c(SCC(=O)O)nc2n(C)c1=O", "growth inhibition, %": -3.65}
{"compound": "N#Cc1c2c(n3c1[nH]c(=O)c1ccccc13)CCCC2", "growth inhibition, %": 10.8}
{"compound": "CC(C)(c1ccccc1)c1ccc(Oc2ccc(C#N)c(C#N)c2)cc1", "growth inhibition, %": -21.6}
{"compound": "N#CN1CC[C@@H]2CC3(CCC2C1)OCCO3 (stereo not given in full)", "growth inhibition, %": 1.5}
{"compound": "O=C(CCn1ccnc1[N+](=O)[O-])NCCCn1ccnc1[N+](=O)[O-]", "growth inhibition, %": -52.2}
{"compound": "CN(C(=O)c1ccncc1)c1ccccc1", "growth inhibition, %": 8.5}
{"compound": "c1ccc(CNc2ncncc2-c2ccccc2)cc1", "growth inhibition, %": 5.15}
{"compound": "CCN(CC)CCCNC(Cc1ccccc1)c1ccc(OC)cc1 (stereo not given)", "growth inhibition, %": -19.8}
{"compound": "CCOC(=O)N1Cc2cc3ccccc3nc2C1CC(=O)O (stereo not given)", "growth inhibition, %": -24.8}
{"compound": "O=C(Cl)c1ccc2ccccc2c1", "growth inhibition, %": 29.4}
{"compound": "COc1ccc(C2=NC(=O)OC2(C)C)cc1", "growth inhibition, %": -10.2}
